The measurements presented in this section are drawn from the supplement of paper PMC12042874.

method: amyloid nucleation score (Sup35N fusion, yeast selection) (log enrichment); library NNK3; higher = more nucleation; inactive = no reads after selection;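 note: zero at mode of non-aggregating sequences after 7 days selection at 30°C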
parameter: amyloid nucleation score

Completed entries (count: 10):
# substance, amyloid nucleation score
measured = [
    ("NVDGVVLDCLSSLDSEWGYV", "inactive"),
    ("YPLCEL", 0.193),
    ("VCVKPLCFLAHMYGKC", "inactive"),
    ("LKFLLRNILVRYYMDVGPVS", "inactive"),
    ("FFFTSKSLGPVTLTLISVSD", "inactive"),
    ("NEGWPLWQWSSAVKHTFSKR", 0.422),
    ("CRHPTGKACELCELACFN", "inactive"),
    ("KRITLWCLCFRSYDHEMMV", "inactive"),
    ("PNRQTLFSSIRF", 0.092),
    ("SIYYSAILMGYWMDVKSLQY", "inactive"),
]

Quick batch: amyloid nucleation score for everything below.
1. YWQHWWL
2. LFGCNERCFYFAF
3. TDVDNGLYRIDNLMARAKVY
4. ELLFIDGWKST
5. LFSHESLVTTGLVAVFSLAK
6. TTCAVCRCIRGAMFNGSVSK
7. RNLYSIRANMWLNRQLRKYS
8. FLNSCQNMQVPSGKFNSSKV

["inactive", "inactive", "inactive", "inactive", "inactive", "inactive", "inactive", -0.122]

---

method: amyloid nucleation score (Sup35N fusion, yeast selection) (log enrichment); library NNK2; higher = more nucleation; inactive = no reads after selection
parameter: amyloid nucleation score
Give bare numbers.

Completed entries (count: 3):
# substance, amyloid nucleation score
data = [
    ("LNFIGFK", 0.102),
    ("MLANTYDSEPSRHRCVGKPI", 0.754),
    ("LVVVMWR", 2.82),
]

Now consider a different substance.
Assign amyloid nucleation score to the following record: YTMASLS
1.74

---

method: amyloid nucleation score (Sup35N fusion, yeast selection) (log enrichment); library NNK3; higher = more nucleation; inactive = no reads after selection
parameter: amyloid nucleation score

Completed entries (count: 5):
# sequence-data, amyloid nucleation score
measured = [
    ("GFLTKCALWKIWF", "inactive"),
    ("NIDFLLSYRTMSKFYPNIRM", "inactive"),
    ("YISLDVTSIVGFVENIKQCV", 1.65),
    ("LLCLVAKRYGMGRLF", "inactive"),
    ("NSLVLTLLNLVGKSLHHFYN", "inactive"),
]

Assign amyloid nucleation score to the following record: RCMTHRTLAHENRFVHTRCW
inactive

---

method: amyloid nucleation score (Sup35N fusion, yeast selection) (log enrichment); library NNK3; higher = more nucleation; inactive = no reads after selection
Hi there, I'd appreciate the recorded amyloid nucleation score for every entry that follows.
Answers are plain numbers.

# sequence-data, result-value
data = [
    ("INVVIRSSHFECTGC", 1.15),
]

Assign amyloid nucleation score to the following record: YFGLALKSFGTLM
0.876

---

Hi there, I'd appreciate the recorded amyloid nucleation score for every entry that follows.
method: amyloid nucleation score (Sup35N fusion, yeast selection) (log enrichment); library NNK2; higher = more nucleation; inactive = no reads after selection
Numbers only.

# substance, result-value
rows = [
    ("CIDRFHTVPLAVHSVCGILL", -0.319),
    ("DPQRVFFWLPYMNLYQHEPF", 0.025),
    ("GLGRKYNMRRRLKLVFWRSD", 4.23),
    ("VTNCLTIWAFMGSRRCWKAP", 3.62),
]

Quick batch: amyloid nucleation score for everything below.
1. ASSSGPGCSLVSSVHASRQG
2. GIMLLSCFDCGGLSTLGHLA
3. MLKIHFLPLLGQWTLCRNPL

1: 1.54; 2: 7.56; 3: 1.28

Quick batch: amyloid nucleation score for everything below.
1. WLLPTTSLLSSQPAQAFRDH
2. IITGLQFLD
3. MLFSRFRNICG
4. LSMDRESFINERWSSQRVMV
5. LTACEQSWLKILLLMEMQTL
6. LATLRLWVTCQRIGISRRKG
7. CIGYKLLLGELLAP
8. ARLKLDRRPMKSSMVCIHSA

1: -0.363; 2: -0.691; 3: -0.08; 4: -0.02; 5: -0.137; 6: 7.02; 7: 0.137; 8: 6.16

Quick batch: amyloid nucleation score for everything below.
1. EILYYWPVNVICRKSVKDCI
2. SDGQGHYVIQRTLWVTWSFR
3. FCILYSVFNGRLRYAFGDAS

1. 0.434
2. -0.707
3. -2.06
